assay: Pseudomonas biofilm growth suppression – PAO1 strain, BacTiter-Glo luminescence, LB-PBS, primary screen (AID 1144); details: P. aeruginosa PAO1 biofilm, 12 h, higher = more signal
Note to self: class labels come from recorded z-score, ranges listed here: bin 1 = under -0.6, bin 2 = from -0.6 up to 0.1, bin 3 = 0.1 and over

Exam item: Class label required: COc1ccc(CCNC(=O)[C@@H]2c3ccccc3C(=O)N(Cc3ccccc3C(F)(F)F)[C@H]2c2ccc(CO)cc2)cc1
Marked response: bin 1

Exam item: Please give the result for O=C1OCC=C[C@H]2OC34C=CCN(CCN5CCOCC5)C(=O)[C@H]3N(CCCCCO)C(=O)[C@@H]4[C@@H]12 (some centres not stated) too.
Marked response: bin 2

Exam item: Please give the result for COC(=O)[C@@]1(Cc2ccc(OC)cc2)[C@H]2c3cc(C(=O)N4CCCC4)n(CCF)c3C[C@H]2CN1C(=O)c1ccccc1 too.
Marked response: bin 2

Exam item: Please give the result for CC(=O)NCCCC[C@@H]1NC(=O)[C@H]2C[C@@H](C(=O)NCCCCCN)[C@@H](c3cccc(OCCO)c3)N2C1=O too.
Marked response: bin 2

Exam item: Please give the result for Cc1ccc(S[C@]2(C(=O)O)CC(=O)N(C3CCCCC3)[C@@H]2c2ccc(CO)cc2)cc1 too.
Marked response: bin 1

Exam item: Please give the result for O=C(O)[C@@]1(Cc2ccccc2)COC(c2ccc(OCCCO)cc2)=N1 too.
Marked response: bin 3

Exam item: Please give the result for COCCOC(=O)N1C(=O)[C@@]2(c3cc(C#CC4(O)CCCCCC4)ccc31)[C@H](C(=O)N1CCN(c3ncccn3)CC1)[C@H]1C(=O)O[C@H](c3ccccc3)[C@H](c3ccccc3)N1[C@@H]2c1ccc(O)cc1 too.
Marked response: bin 3

Exam item: Please give the result for CCCC[C@@H](O)C1=C(COc2ccccc2)Cn2c(=O)n(-c3ccccc3)c(=O)n2[C@H]1CO too.
Marked response: bin 2

Exam item: Please give the result for COC(=O)[C@@]1(Cc2ccccc2)[C@H]2c3cc(C(=O)N(C)C)n(Cc4ccc(O)c(OC)c4)c3C[C@H]2CN1C(=O)c1ccccc1 too.
Marked response: bin 1

Exam item: Please give the result for CC(C)C(CO)N1C(=O)[C@@H]2[C@H]3C(=O)OCC=C[C@H]3OC23C=CCN(CCN2CCOCC2)C(=O)[C@@H]13 (some centres not stated) too.
Marked response: bin 3

Exam item: Please give the result for C=CCC(OC(C)=O)[C@@H]1[C@@H](N(Cc2ccc(-c3ccccc3)cc2)C(=O)Cc2ccc(OC)cc2)c2cc(OCCCO)ccc2N1C(=O)c1ccc(-c2ccccc2)cc1 (some centres not stated) too.
Marked response: bin 3

Exam item: Please give the result for COc1cccc(C[C@H]2C[C@@H](CO[Si](C(C)C)(C(C)C)C(C)C)N3C(=O)[C@]4(C(C)=O)O[C@]23[C@H]2C(=O)N(C)C(=O)[C@H]24)c1 too.
Marked response: bin 2

Exam item: Please give the result for COc1ccc([Si](C)(C)[C@@H]2[C@@H](CC(=O)N3Cc4ccccc4C[C@H]3CO)O[C@]3(C(=O)N(Cc4cccc(N5CCCCC5=O)c4)c4ccccc43)[C@H]2C)cc1 too.
Marked response: bin 3

Exam item: Please give the result for C=CCC(OC(C)=O)[C@@H]1[C@@H](N(Cc2cc3ccccc3o2)C(=O)Cc2ccc(OC)cc2)c2cc(OCCCO)ccc2N1C(=O)c1ccc(-c2ccccc2)cc1 (some centres not stated) too.
Marked response: bin 1

Exam item: Please give the result for CC[C@@H]1[C@@H]2C3C(=O)N(CC)C(=O)C3CC(=O)[C@@H]2[C@H](c2ccc(C)cc2)N1S(=O)(=O)c1ccc(C)cc1 (some centres not stated) too.
Marked response: bin 1

Exam item: Please give the result for C=CCOc1ccc([C@@H]2CC=C(C(=O)OCC)[C@H](c3cccc(Br)c3)N2S(=O)(=O)c2ccc(C)cc2)cc1 too.
Marked response: bin 3

Exam item: Please give the result for CC(=O)NCCCC[C@@H]1NC(=O)[C@@H]2C[C@H](C(=O)NCCCC[N+](C)(C)C)[C@H](c3cccc(OCCO)c3)N2C1=O too.
Marked response: bin 2

Exam item: Please give the result for COC(=O)C(CC#Cc1ccc2c(c1)[C@]1(C(=O)N2)[C@H](C(=O)N2CCc3cc(OC)c(OC)cc3C2)[C@H]2C(=O)O[C@H](c3ccccc3)[C@H](c3ccccc3)N2[C@@H]1c1ccc(O)cc1)C(=O)OC too.
Marked response: bin 1

Exam item: Please give the result for CCOC(=O)C1=CC[C@@H](c2ccc(N(CC)CC)cc2)N(S(=O)(=O)c2ccc(C)cc2)[C@H]1c1ccc([N+](=O)[O-])cc1 too.
Marked response: bin 3

Exam item: Please give the result for COC(=O)[C@@]1(Cc2ccc(OC)cc2)[C@H]2c3cc(C(=O)N4CCCC4)n(Cc4ccc(C)o4)c3C[C@H]2CN1C(=O)c1ccccc1 too.
Marked response: bin 2

Exam item: Please give the result for Cc1ccc(N2C(=O)c3ccccc3[C@](C)(C(=O)NC(C)C)[C@@H]2c2ccc(CO)cc2)nc1 too.
Marked response: bin 3

Exam item: Please give the result for CCOC(=O)C[C@H]1[C@H](OC(=O)Cc2ccc3c(c2)OCO3)[C@@H](NC(=O)c2ccccc2)c2cc(OCCCO)ccc2N1C(=O)c1ccc2ccccc2n1 too.
Marked response: bin 3

Exam item: Please give the result for C[N+](C)(C)CCCCCCNC(=O)[C@@H]1C[C@@H]2C(=O)NCC(=O)N2[C@@H]1c1cccc(OCCO)c1 too.
Marked response: bin 1

Exam item: Please give the result for CC(C)N1C(=O)c2ccccc2[C@](C)(C(=O)O)[C@@H]1c1ccc(CO)cc1 too.
Marked response: bin 2

Exam item: Please give the result for C=CCNC(=O)[C@H]1[C@@H]2C(=O)O[C@@H](c3ccccc3)[C@@H](c3ccccc3)N2[C@@H](c2ccc(OCCO)cc2)[C@]12C(=O)N(C(=O)OCCOC)c1ccc(C#CC3=CCCCC3)cc12 too.
Marked response: bin 3

Exam item: Please give the result for CCCCC(=C=CC[C@H](O)c1ccccc1OCCO)C[C@H](O)c1ccccn1 too.
Marked response: bin 2

Exam item: Please give the result for C=C(/C(=C/C[C@@H](OC(=O)c1ccncc1)c1cccc(OCCO)c1)c1cc(C(=O)OC)ccc1OC)C(C)C too.
Marked response: bin 1

The reported numbers originate from PubChem BioAssay.
